target: UniProt Q64663
Sequence (Q64663 whole entry): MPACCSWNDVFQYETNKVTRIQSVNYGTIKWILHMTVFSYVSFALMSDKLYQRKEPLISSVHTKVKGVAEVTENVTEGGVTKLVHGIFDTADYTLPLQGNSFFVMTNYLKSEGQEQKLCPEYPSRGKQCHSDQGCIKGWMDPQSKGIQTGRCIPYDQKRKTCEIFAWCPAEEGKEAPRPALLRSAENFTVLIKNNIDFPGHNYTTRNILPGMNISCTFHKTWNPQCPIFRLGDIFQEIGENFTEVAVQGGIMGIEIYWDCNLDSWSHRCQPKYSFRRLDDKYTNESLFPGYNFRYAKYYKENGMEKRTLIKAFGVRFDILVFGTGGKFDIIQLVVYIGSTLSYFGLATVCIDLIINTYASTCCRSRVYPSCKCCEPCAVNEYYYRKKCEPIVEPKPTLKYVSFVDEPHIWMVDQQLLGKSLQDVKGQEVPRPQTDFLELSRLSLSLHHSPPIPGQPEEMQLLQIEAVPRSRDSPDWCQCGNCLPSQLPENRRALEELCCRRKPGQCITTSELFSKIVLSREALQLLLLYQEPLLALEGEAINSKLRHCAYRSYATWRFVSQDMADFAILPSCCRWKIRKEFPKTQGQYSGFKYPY

| molecule | Ki |
| --- | --- |
| Cc1cc(-n2nnc3c2CCN(C(=O)c2ccnc(C(F)(F)F)c2Cl)[C@@H]3C)ncc1F (single isomer, unassigned) | 0.0473 µM |

====

molecular target: human P2X7 (Homo sapiens (Human), UniProt Q99572); assay: P2X7 antagonism in human PBMCs (IL-1β release after LPS + Bz-ATP, ELISA); type: cell-based; details: 10 μM test compound, human PBMCs, LPS + Bz-ATP
Sequence (Q99572 whole entry): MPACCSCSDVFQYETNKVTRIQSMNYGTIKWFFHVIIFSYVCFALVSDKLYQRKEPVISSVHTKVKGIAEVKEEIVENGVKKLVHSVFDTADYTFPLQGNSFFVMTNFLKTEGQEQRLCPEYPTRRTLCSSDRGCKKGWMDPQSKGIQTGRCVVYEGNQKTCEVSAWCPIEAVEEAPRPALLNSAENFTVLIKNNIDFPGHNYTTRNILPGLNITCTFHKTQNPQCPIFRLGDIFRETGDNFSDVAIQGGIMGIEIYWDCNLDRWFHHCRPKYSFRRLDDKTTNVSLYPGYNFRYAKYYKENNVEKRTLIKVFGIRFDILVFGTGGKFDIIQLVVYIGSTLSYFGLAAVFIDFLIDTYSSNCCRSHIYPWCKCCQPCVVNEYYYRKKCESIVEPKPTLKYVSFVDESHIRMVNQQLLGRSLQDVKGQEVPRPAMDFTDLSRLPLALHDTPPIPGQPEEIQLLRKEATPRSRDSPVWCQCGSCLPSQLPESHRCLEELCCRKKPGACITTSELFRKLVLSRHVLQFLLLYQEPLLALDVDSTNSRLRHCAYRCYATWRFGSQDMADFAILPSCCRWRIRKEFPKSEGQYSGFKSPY
metric: PBMC 10 μM (% control)

| compound | experimentalResult |
| --- | --- |
| CC(C)n1ccc(-n2nnc3c2CCN(C(=O)c2cccc(C(F)(F)F)c2F)[C@H]3C)n1 [Example 415] | 1.5 |
| C[C@H]1Cc2c(nnn2-c2cc[nH]n2)CN1C(=O)c1ccnc(C(F)(F)F)c1F (single isomer, unassigned) [Example 424] | −11.2 |
| CC1c2n[nH]c(-c3ccnn3C)c2CCN1C(=O)c1cccc(Cl)c1Cl (stereo not shown) [Example 436] | −3.4 |
| Cc1ccnc(-n2nnc3c2CCN(C(=O)c2cccc(C(F)(F)F)c2Cl)[C@H]3C)n1 (single isomer, unassigned) [Example 439] | 1.2 |
| CC(C)n1ccc(-n2nnc3c2CCN(C(=O)c2ccnc(C(F)(F)F)c2Cl)[C@H]3C)n1 [Example 417] | 112.2 |
| CCn1ccc(-n2nnc3c2C[C@H](C)N(C(=O)c2ccnc(C(F)(F)F)c2Cl)C3)n1 [Example 410] | −1.5 |
| C[C@H]1Cc2c(nnn2-c2ncc(F)cn2)CN1C(=O)c1cccc(OC(F)(F)F)c1F [Example 427] | −0.8 |
| CC(C)n1ccc(-n2nnc3c2CCN(C(=O)c2ccnc(C(F)(F)F)c2F)[C@H]3C)n1 [Example 419] | −0.4 |
| CC1c2n[nH]c(-c3ccc(F)cn3)c2CCN1C(=O)c1cccc(C(F)(F)F)c1Cl (stereo not shown) [Example 430] | −4.0 |
| C[C@H]1c2nnn(-c3ccsc3)c2CCN1C(=O)c1cccc(C(F)(F)F)c1Cl [Example 421] | −1.4 |
| CC1c2n[nH]c(-c3ccc(F)cc3)c2CCN1C(=O)c1cccc(C(F)(F)F)c1Cl (stereo not shown) [Example 434] | 3.1 |
| CCn1ccc(-n2nnc3c2CCN(C(=O)c2ccnc(C(F)(F)F)c2F)[C@H]3C)n1 [Example 409] | 0.5 |
| CC1c2n[nH]c(-c3ncccn3)c2CCN1C(=O)c1cccc(Cl)c1Cl (stereo not shown) [Example 431] | −6.4 |
| C[C@H]1Cc2c(nnn2-c2ncc(O)cn2)CN1C(=O)c1ccnc(C(F)(F)F)c1F [Example 429] | 2.3 |
| C[C@H]1Cc2c(nnn2-c2ncc(F)cn2)CN1C(=O)c1cccc(C(F)(F)F)c1O [Example 426] | 113.2 |
| CCn1nccc1-n1nnc2c1CCN(C(=O)c1cccc(C(F)(F)F)c1Cl)[C@H]2C [Example 407] | 77.4 |
| CCn1ccc(-n2nnc3c2C[C@H](C)N(C(=O)c2cccc(C(F)(F)F)c2Cl)C3)n1 [Example 404] | −3.1 |
| CCn1ccc(-n2nnc3c2C[C@H](C)N(C(=O)c2ccnc(C(F)(F)F)c2F)C3)n1 [Example 408] | 53.6 |
| CC1c2n[nH]c(-c3ccc(F)cc3)c2CCN1C(=O)c1cccc(Cl)c1Cl (stereo not shown) [Example 435] | −11.3 |
